systemUnderTest: PARP7 (Homo sapiens, UniProt Q7Z3E1)
Construct: purchased BPS 80527
Sequence (Q7Z3E1 whole entry): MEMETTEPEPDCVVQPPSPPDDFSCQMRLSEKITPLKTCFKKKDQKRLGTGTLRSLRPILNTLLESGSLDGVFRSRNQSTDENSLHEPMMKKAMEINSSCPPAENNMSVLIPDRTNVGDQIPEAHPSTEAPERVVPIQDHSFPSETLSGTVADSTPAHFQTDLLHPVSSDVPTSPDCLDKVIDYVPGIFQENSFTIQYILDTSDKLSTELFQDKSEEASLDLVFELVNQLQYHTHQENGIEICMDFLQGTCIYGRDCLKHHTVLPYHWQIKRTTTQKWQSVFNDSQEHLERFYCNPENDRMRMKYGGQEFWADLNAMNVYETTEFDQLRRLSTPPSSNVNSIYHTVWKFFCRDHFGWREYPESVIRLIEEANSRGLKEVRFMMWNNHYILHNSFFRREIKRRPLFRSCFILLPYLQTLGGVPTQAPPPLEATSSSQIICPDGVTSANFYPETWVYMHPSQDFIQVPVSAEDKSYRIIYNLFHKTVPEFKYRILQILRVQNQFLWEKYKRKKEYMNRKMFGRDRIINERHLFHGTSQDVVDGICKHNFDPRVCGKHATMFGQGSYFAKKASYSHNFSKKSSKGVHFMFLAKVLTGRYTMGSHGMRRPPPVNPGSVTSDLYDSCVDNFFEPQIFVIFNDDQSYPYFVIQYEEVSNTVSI
methodDescription: Inhibition of the compound on PARP7 protein activity (ADP-ribosylation, chemiluminescence)
Format: biochemical
experimentalConditions: Histone H1 coated plate, Biotin-Labeled NAD+, 2 h at room temperature, chemiluminescence; read-out: PARP7 activity inhibition IC50
Measured IC50, listed per entry for reference.

O=C(NCCCC(Nc1cn[nH]c(=O)c1C(F)(F)F)C1CC1)c1ccc(-c2ncc(C(F)(F)F)s2)cc1 (stereo not shown) [Example 55] :: < 3 nM

Determine from records and report IC50 for CC(CCCN1C(=O)c2ccc(-c3ncc(C(F)(F)F)cn3)cc2C1=O)Nc1cn[nH]c(=O)c1C(F)(F)F (stereo not shown) [Example 9]
< 3 nM

Determine from records and report IC50 for CCNC(=O)C(CCCNC(=O)c1ccc(-c2ncc(C(F)(F)F)s2)cc1)Nc1cn[nH]c(=O)c1C(F)(F)F (stereo not shown) [Example 231]
< 3 nM

Determine from records and report IC50 for Cc1c(CCC(=O)Nc2ccc(-c3ncc(C(F)(F)F)cn3)cc2F)c[nH]c(=O)c1C(F)(F)F [Example 53]
10 to 30 nM
